- EXPERIMENT_SUMMARY: Mouse oral bioavailability
- Format: in vivo
- ASSAY_SETUP: whole blood (dried blood spot), male mice, IV bolus 1 mg/kg vs oral 3 mg/kg, 8-hour AUC, read-out: % F (mouse)
OBSERVABLE: bioavailability (%)

COMPOUND	UNIT_ANNOTATION	MEASUREMENT
O=C(N[C@H](c1cn2ncc(CN3C[C@@H](C(F)(F)F)NC3=O)cc2n1)C1CCC(F)(F)CC1)c1conc1C1CC1 [Example 1]	%	34
O=C(N[C@H](c1cn2ncc(CN3C[C@@H](C(F)(F)F)NC3=O)cc2n1)C1CCC(F)(F)CC1)c1conc1CF [Example 7]	%	47

1 = O=C(N[C@H](c1cn2ncc(CN3C[C@@H](C(F)(F)F)NC3=O)cc2n1)C1CCC(F)(F)CC1)c1conc1C(F)F [Example 4]
2 = Cc1nocc1C(=O)N[C@H](c1cn2ncc(CN3C[C@@H](C(F)(F)F)NC3=O)cc2n1)C1CCC(F)(F)CC1 [Example 3]
3 = COC[C@H](c1cnn2cc([C@@H](NC(=O)c3nonc3C)C3CCC(F)(F)CC3)nc2c1)N1C[C@@H](C(F)(F)F)NC1=O [Example 24]
Exercise: Reorder the items by bioavailability, least to greatest. List each label, following the requested order.
Key: 2, 1, 3

====

- MEASURED_ON: UniProtKB Q16552
- Sequence (Q16552 other isoform, or with tags, fused parts or gaps): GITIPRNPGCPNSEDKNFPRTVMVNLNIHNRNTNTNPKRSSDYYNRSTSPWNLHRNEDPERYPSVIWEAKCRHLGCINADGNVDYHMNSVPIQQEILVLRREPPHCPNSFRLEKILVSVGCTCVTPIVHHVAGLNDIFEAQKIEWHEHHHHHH
Here the recorded IC50 is given for each entry.

# annotated cases, reported IC50 shown
COMPOUND	IC50
O=C(N[C@H](c1cn2ncc(CN3C[C@@H](C(F)(F)F)NC3=O)cc2n1)C1CCC(F)(F)CC1)c1conc1C(F)(F)F [Example 11]	< 9.45 nM
COC[C@H](c1cnn2cc([C@@H](NC(=O)c3nonc3C)C3CCC(F)(F)CC3)nc2c1)N1C[C@@H](C(F)(F)F)NC1=O [Example 24]	< 9.45 nM

From here, focus on the item given below.
Exercise: Identify measured IC50 associated with Cc1nonc1C(=O)N[C@H](c1cn2ncc(CN3C[C@@H](C(F)(F)F)NC3=O)cc2n1)C1CCC(F)(F)CC1 [Example 6]
Key: < 9.45 nM
